test system: Staphylococcus epidermidis; assay: Inhibition of methicillin-resistant Staphylococcus epidermidis TarO assessed as potentiation of action of imipenem-mediated bacterial growth inhibition by measuring percentage of compound MITC95<=25 uM for 25 isolates; parameters: scale not given: the % may be the effect or the level left
Recorded measurements of Activity, one per entry
observationType: Activity (%)

compound="CCN(C(=O)CCn1c(C2CCCN(C(=O)OC(C)(C)C)C2)nc2cc(F)ccc21)C1CCCCC1 (stereo not drawn)" observationtype=Activity measurementunit=% recordedvalue=4
compound=CCN(C(=O)CCn1c2c(F)cccc2nc1[C@H]1CC[C@H](CC)CC1)C1CCCCC1 observationtype=Activity measurementunit=% recordedvalue=75
compound=CCN(C(=O)CCn1c2cccc(F)c2nc1[C@H]1CC[C@H](CC)CC1)C1CCCCC1 observationtype=Activity measurementunit=% recordedvalue=58
compound=CCN(C(=O)CCn1c2cc(F)ccc2nc1[C@H]1CC[C@H](CC)CC1)C1CCCCC1 observationtype=Activity measurementunit=% recordedvalue=42
compound=CCN(C(=O)CCn1c2cc(-c3ccccc3)ccc2nc1[C@H]1CC[C@H](CC)CC1)C1CCCCC1 observationtype=Activity measurementunit=% recordedvalue=12
compound=CCN(C(=O)CCn1c(-c2ccc(OCC(F)(F)F)cc2)nc2ccccc21)C1CCCCC1 observationtype=Activity measurementunit=% recordedvalue=4
compound=CCN(C(=O)CCn1c2cc(-c3cnn(C)c3)ccc2nc1[C@H]1CC[C@H](CC)CC1)C1CCCCC1 observationtype=Activity measurementunit=% recordedvalue=67
compound=CCN(C(=O)CCn1c2ccc(F)cc2nc1[C@H]1CC[C@H](CC)CC1)C1CCCCC1 observationtype=Activity measurementunit=% recordedvalue=54

---

test system: Staphylococcus aureus subsp. aureus COL; assay: Inhibition of methicillin-resistant Staphylococcus aureus COL TarO assessed as concentration of compound for potentiation of action of imipenem-mediated bacterial growth inhibition by 95 %
observationType: MITC95 (µM)

molecule=CCN(C(=O)CCn1c(-c2ccc(C(=O)OC)cc2)nc2ccccc21)C1CCCCC1 recordedvalue=1.2
molecule=CCN(C(=O)CCn1c2cc(C(=O)O)ccc2nc1[C@H]1CC[C@H](CC)CC1)C1CCCCC1 recordedvalue=200
molecule=CCN(C(=O)CCn1c2cc(CO)ccc2nc1[C@H]1CC[C@H](CC)CC1)C1CCCCC1 recordedvalue=0.5
molecule=CC1(C)[C@@H]2CC[C@@]1(C)[C@@H](NC(=O)CCn1c(C3CCCCC3)nc3ccccc31)C2 recordedvalue=3
molecule="CCN(C(=O)CCn1c(C2CCCN(C(=O)OC(C)(C)C)C2)nc2cc(F)ccc21)C1CCCCC1 (stereo not drawn)" recordedvalue=0.5
molecule="CCN(C(=O)CCn1c(C2CCCNC2)nc2cc(F)ccc21)C1CCCCC1 (stereo not drawn)" recordedvalue=200
molecule="CCOC(=O)N1CCCC(c2nc3cc(F)ccc3n2CCC(=O)N(CC)C2CCCCC2)C1 (stereo not drawn)" recordedvalue=0.4
molecule="CCNC(=O)N1CCCC(c2nc3cc(F)ccc3n2CCC(=O)N(CC)C2CCCCC2)C1 (stereo not drawn)" recordedvalue=100
molecule=CCN(C(=O)CCn1c2cc(CN(C)C)ccc2nc1[C@H]1CC[C@H](CC)CC1)C1CCCCC1 recordedvalue=25
molecule=CCN(C(=O)CCn1c2cc(-c3ccc(CO)cc3)ccc2nc1[C@H]1CC[C@H](CC)CC1)C1CCCCC1 recordedvalue=4.7
molecule=CCN(C(=O)CCn1c2cc(-c3cnn(C)c3)ccc2nc1[C@H]1CC[C@H](CC)CC1)C1CCCCC1 recordedvalue=0.2
molecule=CCN(C(=O)CCn1c2cc(C(=O)NC3CC3)ccc2nc1[C@H]1CC[C@H](CC)CC1)C1CCCCC1 recordedvalue=50
molecule=CCN(C(=O)CCn1c2cc(-c3ccccc3)ccc2nc1[C@H]1CC[C@H](CC)CC1)C1CCCCC1 recordedvalue=0.2
molecule="CCN(C(=O)CCn1c(C2CCCN(C(C)=O)C2)nc2cc(F)ccc21)C1CCCCC1 (stereo not drawn)" recordedvalue=100
molecule=CCN(C(=O)CCn1c2cccc(F)c2nc1[C@H]1CC[C@H](CC)CC1)C1CCCCC1 recordedvalue=0.1
molecule=CCN(C(=O)CCn1c2cc(-c3cn[nH]c3)ccc2nc1[C@H]1CC[C@H](CC)CC1)C1CCCCC1 recordedvalue=6.3
molecule=CCN(C(=O)CCn1c(-c2ccc(OCC(F)(F)F)cc2)nc2ccccc21)C1CCCCC1 recordedvalue=0.3
molecule=CCN(C(=O)CCn1c2cc(F)ccc2nc1[C@H]1CC[C@H](CC)CC1)C1CCCCC1 recordedvalue=0.1

---

assay: Oral bioavailability in rat at 2 mg/kg; type: ADME, organism-based; conditions: in vivo
observationType: bioavailability (%)

compoundsmiles=CCN(C(=O)CCn1c2ccc(F)cc2nc1[C@H]1CC[C@H](CC)CC1)C1CCCCC1 recordedvalue=15

---

test system: Staphylococcus aureus; experiment: Inhibition of methicillin-resistant Staphylococcus aureus TarO assessed as potentiation of action of imipenem-mediated bacterial growth inhibition by measuring percentage of compound MITC95<=25 uM for 25 isolates; design: scale not given: the % may be the effect or the level left
Recorded measurements of Activity, one per entry
observationType: Activity

compound="CCN(C(=O)CCn1c(C2CCCN(C(=O)OC(C)(C)C)C2)nc2cc(F)ccc21)C1CCCCC1 (configuration not stated)" observationtype=Activity recordedvalue=64%
compound=CCN(C(=O)CCn1c2c(F)cccc2nc1[C@H]1CC[C@H](CC)CC1)C1CCCCC1 observationtype=Activity recordedvalue=68%
compound=CCN(C(=O)CCn1c2cccc(F)c2nc1[C@H]1CC[C@H](CC)CC1)C1CCCCC1 observationtype=Activity recordedvalue=68%
compound=CCN(C(=O)CCn1c2cc(CO)ccc2nc1[C@H]1CC[C@H](CC)CC1)C1CCCCC1 observationtype=Activity recordedvalue=68%
compound=CCN(C(=O)CCn1c2cc(F)ccc2nc1[C@H]1CC[C@H](CC)CC1)C1CCCCC1 observationtype=Activity recordedvalue=68%
compound=CCN(C(=O)CCn1c2cc(-c3ccc(O)cc3)ccc2nc1[C@H]1CC[C@H](CC)CC1)C1CCCCC1 observationtype=Activity recordedvalue=56%
compound=CCN(C(=O)CCn1c2ccc(F)cc2nc1[C@H]1CC[C@H](CC)CC1)C1CCCCC1 observationtype=Activity recordedvalue=76%
compound=CCN(C(=O)CCn1c2cc(-c3cnn(C)c3)ccc2nc1[C@H]1CC[C@H](CC)CC1)C1CCCCC1 observationtype=Activity recordedvalue=80%
compound="CCOC(=O)N1CCCC(c2nc3cc(F)ccc3n2CCC(=O)N(CC)C2CCCCC2)C1 (configuration not stated)" observationtype=Activity recordedvalue=68%
compound=CCN(C(=O)CCn1c2cc(-c3ccccc3)ccc2nc1[C@H]1CC[C@H](CC)CC1)C1CCCCC1 observationtype=Activity recordedvalue=72%
compound=CCN(C(=O)CCn1c(-c2ccc(C(=O)OC)cc2)nc2ccccc21)C1CCCCC1 observationtype=Activity recordedvalue=64%
compound=CCN(C(=O)CCn1c(-c2ccc(OCC(F)(F)F)cc2)nc2ccccc21)C1CCCCC1 observationtype=Activity recordedvalue=68%

---

assay: Half life in rat at 2 mg/kg, po; format: ADME, organism-based; conditions: in vivo
observationType: half-life

compoundsmiles=CCN(C(=O)CCn1c2ccc(F)cc2nc1[C@H]1CC[C@H](CC)CC1)C1CCCCC1 observationtype=half-life recordedvalue="5 h"
